Hey, just so you know, these numbers are from ChEMBL document CHEMBL1201862.

# Test system: MOLT-4
# assayProcedure: NCI tumour cell line growth inhibition, 48 h
Activity calls are given as the source filed them. Rule as the data show it: active = GI50 up to about 1.1 µM and inactive = higher.
assayReadout: GI50

Use the examples below as a reference point.
| compound | endpointValue |
| --- | --- |
| CC(C)C1CC(CO)(CNc2nc(N)nc(Cl)c2/C=N\O)C1 (stereo not given) | 10.3 µM (inactive) |
| CCCCCCCSCC1C(=O)C23C(O)C1CCC2C12COC3(O)C(O)C1C(C)(C)CCC2O (stereo not given) | 3.3 µM (inactive) |
| CN1C(=O)C(/C=N/NC(=O)c2cccnc2)C(N)N(C)C1=O (stereo not given) | > 100 µM (inactive) |
| OCC1OC(n2nc(-c3ccccc3)nc2-c2cnccn2)C(O)C1O (stereo not given) | > 100 µM (inactive) |

Query: Return reported GI50. Input compound: O=c1[nH]c(=O)n(C2CC(O)C(CO)O2)cc1OC/C=C/Cc1ccccc1 (stereo not given)
Result: > 100 µM (inactive)
